Biological target: human calpain 9 (Homo sapiens, UniProt O14815)
Construct: human calpain 9, residues 27-347, was over expressed in E. coli BL21 (DE3); hexa-histidine (N); made in house; host or cells: E. coli BL21 (DE3)
Sequence (O14815 27-347): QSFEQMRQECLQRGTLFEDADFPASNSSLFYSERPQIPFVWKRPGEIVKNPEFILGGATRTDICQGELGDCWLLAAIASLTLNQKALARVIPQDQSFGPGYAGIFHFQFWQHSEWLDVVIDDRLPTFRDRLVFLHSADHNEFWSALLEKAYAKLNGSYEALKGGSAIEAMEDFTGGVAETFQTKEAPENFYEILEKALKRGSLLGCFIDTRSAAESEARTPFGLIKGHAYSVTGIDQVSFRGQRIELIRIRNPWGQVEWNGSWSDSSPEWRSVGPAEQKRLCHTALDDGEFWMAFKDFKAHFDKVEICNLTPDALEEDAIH
Assay: Calpain binding: crystal structure interaction distances, human calpain 9
Conditions: non-polar interactions with human calpain 9
Interaction Distances P3-Ser191 by entry:
Form entry: value (Å) — number only.

Example cases with answers are listed next.
Cn1cc(C(=O)N[C@@H](Cc2ccccc2)C(=O)C(N)=O)c(-c2ccccc2)n1    4.4
NC(=O)C(=O)[C@H](Cc1ccccc1)NC(=O)c1snnc1-c1ccccc1    4.2
NC(=O)C(=O)[C@H](Cc1ccccc1)NC(=O)c1nsnc1-c1ccccc1    4.2

# input compound: CCCC[C@H](NC(=O)c1oc(C)nc1-c1ccccc1)C(=O)C(N)=O ; wanted: its Interaction Distances P3-Ser191
3.8

* * *

molecular target: Human Calpain 2/NS1 (Homo sapiens); assay: Calpain inhibition continuous fluorescence (FRET) assay, Human Calpain 2/NS1; type: biochemical; conditions: read-out: Human Calpain 2/NS1 IC50
Sequence (P17655 whole entry): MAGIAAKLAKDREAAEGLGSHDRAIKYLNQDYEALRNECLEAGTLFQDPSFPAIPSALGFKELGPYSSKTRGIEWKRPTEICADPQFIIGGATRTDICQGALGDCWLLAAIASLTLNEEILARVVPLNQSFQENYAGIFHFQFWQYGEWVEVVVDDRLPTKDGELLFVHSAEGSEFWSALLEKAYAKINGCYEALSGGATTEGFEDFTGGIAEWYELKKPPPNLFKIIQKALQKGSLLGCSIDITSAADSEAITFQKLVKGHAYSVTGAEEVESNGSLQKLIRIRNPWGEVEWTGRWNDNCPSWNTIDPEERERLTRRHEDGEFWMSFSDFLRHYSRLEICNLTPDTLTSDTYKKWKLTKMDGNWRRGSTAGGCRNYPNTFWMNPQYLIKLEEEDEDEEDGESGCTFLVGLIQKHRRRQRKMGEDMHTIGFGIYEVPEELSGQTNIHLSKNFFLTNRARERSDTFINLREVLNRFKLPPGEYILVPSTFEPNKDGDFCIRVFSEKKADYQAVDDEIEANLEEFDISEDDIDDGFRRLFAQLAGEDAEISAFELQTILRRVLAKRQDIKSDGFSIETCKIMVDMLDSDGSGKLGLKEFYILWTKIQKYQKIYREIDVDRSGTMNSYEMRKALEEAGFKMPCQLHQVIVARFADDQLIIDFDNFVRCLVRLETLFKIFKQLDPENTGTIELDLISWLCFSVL
Sequence (P04632 whole entry partner): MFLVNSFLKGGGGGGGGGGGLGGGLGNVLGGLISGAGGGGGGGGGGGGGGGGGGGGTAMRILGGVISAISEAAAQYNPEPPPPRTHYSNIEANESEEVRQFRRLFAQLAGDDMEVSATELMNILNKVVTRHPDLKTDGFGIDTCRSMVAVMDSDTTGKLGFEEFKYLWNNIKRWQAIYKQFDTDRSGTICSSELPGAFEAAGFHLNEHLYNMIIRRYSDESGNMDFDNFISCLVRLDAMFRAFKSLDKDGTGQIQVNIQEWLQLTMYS
pIC50: −log10 of the molar value.
pIC50 by entry:

Example cases with answers are listed next.
NC(=O)C(=O)C(Cc1ccccc1)NC(=O)c1cn(C(F)F)nc1-c1cc(F)ccc1F (centres unmarked)    > 5.52
O=CC(Cc1ccccc1)NC(=O)c1cnoc1-c1ccccc1 (centres unmarked)    > 5.52
Cc1c(F)cccc1-c1oncc1C(=O)NC(Cc1ccccc1)C(=O)C(N)=O (centres unmarked)    > 5.52
CC[C@H](NC(=O)c1cn(C)nc1-c1ccccc1)C(=O)C(N)=O    > 5.52

# next compound below
What is its pIC50 for Human Calpain 2/NS1 (Homo sapiens)? Entry: Cn1ncc(C(=O)NC(Cc2ccccc2)C(=O)C(N)=O)c1Cc1ccccc1 (centres unmarked)
5.00 to 5.52

* * *

target: human calpain 9 (Homo sapiens, UniProt O14815); construct: human calpain 9, residues 27-347, was over expressed in E. coli BL21 (DE3); hexa-histidine (N); made in house; host or cells: E. coli BL21 (DE3); experiment: Calpain binding: crystal structure interaction distances, human calpain 9; conditions: non-polar interactions with human calpain 9
Interaction Distances P1-Gly189 by entry:
Form entry: value (Å) — number only.

CCCC[C@H](NC(=O)c1oc(C)nc1-c1ccccc1)C(=O)C(N)=O    3.7
NC(=O)C(=O)[C@H](Cc1ccccc1)NC(=O)c1snnc1-c1ccccc1    3.4
NC(=O)C(=O)[C@H](Cc1ccccc1)NC(=O)c1nsnc1-c1ccccc1    3.5

# next compound below
# input compound: Cn1cc(C(=O)N[C@@H](Cc2ccccc2)C(=O)C(N)=O)c(-c2ccccc2)n1 ; wanted: its Interaction Distances P1-Gly189
3.5
